List of IC50 values.
Molecular target: COX-I (Homo sapiens, UniProt P23219)
Construct: coding fragment from Cayman Chemical
Sequence (P23219 24-599): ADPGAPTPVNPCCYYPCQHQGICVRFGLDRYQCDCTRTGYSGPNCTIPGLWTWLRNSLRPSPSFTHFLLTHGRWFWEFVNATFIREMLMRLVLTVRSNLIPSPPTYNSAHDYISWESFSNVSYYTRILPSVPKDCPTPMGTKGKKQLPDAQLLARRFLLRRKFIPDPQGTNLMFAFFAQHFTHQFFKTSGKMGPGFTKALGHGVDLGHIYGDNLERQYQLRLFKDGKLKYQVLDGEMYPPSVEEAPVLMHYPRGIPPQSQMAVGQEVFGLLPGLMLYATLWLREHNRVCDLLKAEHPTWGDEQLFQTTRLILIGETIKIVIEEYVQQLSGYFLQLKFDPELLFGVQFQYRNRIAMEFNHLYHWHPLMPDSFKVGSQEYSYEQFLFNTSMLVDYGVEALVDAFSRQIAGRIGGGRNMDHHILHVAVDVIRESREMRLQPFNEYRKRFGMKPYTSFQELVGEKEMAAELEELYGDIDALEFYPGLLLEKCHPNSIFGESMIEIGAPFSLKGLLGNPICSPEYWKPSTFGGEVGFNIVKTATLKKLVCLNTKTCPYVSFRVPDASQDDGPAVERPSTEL
Experiment: Human Enzyme Assay, recombinant COX-I (PGE2 ELISA)
measure: IC50

CC(C)(C)c1ccc(S[C@@H]2CCC[C@H]2OCC(=O)O)c(C(C)(C)C)c1 (racemic) [Example 81]; 94.6 µM
CC(C)(C)c1cc(S[C@H]2CCC[C@H]2OCC(=O)O)cc(C(C)(C)C)c1 (relative stereo) [Example 77]; > 100 µM
CC(C)(C)c1cc(S[C@H]2CCC[C@H]2OCC(=O)O)cc(C(C)(C)C)c1 (single isomer, unassigned) [Example 84]; > 100 µM
CC(C)(C)c1cc(S[C@H]2CCCC[C@H]2OCC(=O)O)cc(C(C)(C)C)c1 (racemic); > 100 µM
CC(C)(C)c1ccc(S[C@@H]2CCC[C@H]2OCC(=O)O)c(C(C)(C)C)c1 (single isomer, unassigned) [Example 93]; > 100 µM
CC(C)(C)c1ccc(O[C@@H]2CCC[C@H]2OCC(=O)O)c(C(C)(C)C)c1 (relative stereo); > 100 µM
CC(C)(C)c1ccc(S[C@H]2CCC[C@H]2OCC(=O)O)c(C(C)(C)C)c1 (single isomer, unassigned) [Example 97]; 92.1 µM
CC(C)(C)c1ccc(S[C@H]2CCC[C@H]2OCC(=O)O)c(C(C)(C)C)c1 (racemic) [Example 80]; 28.5 µM
CC(C)(C)c1cc(S[C@@H]2CCC[C@H]2OCC(=O)O)cc(C(C)(C)C)c1 (relative stereo); > 100 µM
CC(C)(C)c1ccc(S[C@@H]2CCC[C@H]2OCC(=O)O)c(C(C)(C)C)c1 (single isomer, unassigned) [Example 92]; > 100 µM
CC(C)(C)c1cc(S[C@@H]2CCCC[C@H]2OCC(=O)O)cc(C(C)(C)C)c1 (single isomer, unassigned); > 100 µM

---

Biological target: 5-lipoxygenase (Rattus norvegicus, UniProt P12527)
Construct: The 100,000×g supernatant fraction of Rat Basophilic Leukemia Cell Homogenate (RBL-1); endogenous in cells; host or cells: RBL-1 (rat basophilic leukemia) cells, 100,000xg supernatant of homogenate
Sequence (P12527 whole entry): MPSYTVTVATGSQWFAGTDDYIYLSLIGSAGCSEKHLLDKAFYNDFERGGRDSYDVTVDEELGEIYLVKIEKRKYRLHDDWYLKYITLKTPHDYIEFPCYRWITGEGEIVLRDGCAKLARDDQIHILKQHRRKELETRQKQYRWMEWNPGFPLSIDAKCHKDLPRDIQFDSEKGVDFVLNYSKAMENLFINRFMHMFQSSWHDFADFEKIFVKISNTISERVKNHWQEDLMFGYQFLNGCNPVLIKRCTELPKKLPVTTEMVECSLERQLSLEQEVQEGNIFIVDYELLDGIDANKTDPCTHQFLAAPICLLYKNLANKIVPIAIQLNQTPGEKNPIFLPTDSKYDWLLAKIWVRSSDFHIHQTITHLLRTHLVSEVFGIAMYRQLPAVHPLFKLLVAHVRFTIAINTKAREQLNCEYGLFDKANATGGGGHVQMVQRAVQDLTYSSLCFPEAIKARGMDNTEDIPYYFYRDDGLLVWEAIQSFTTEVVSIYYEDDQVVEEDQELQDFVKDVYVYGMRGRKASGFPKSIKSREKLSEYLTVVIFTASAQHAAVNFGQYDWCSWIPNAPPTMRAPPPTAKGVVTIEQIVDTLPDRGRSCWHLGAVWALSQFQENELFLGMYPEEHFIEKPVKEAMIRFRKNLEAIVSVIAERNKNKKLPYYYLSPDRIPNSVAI
Assay: Inhibition of 5-lipoxygenase, in vitro (5-HETE formation, RBL-1 homogenate supernatant)
Type: biochemical
Settings: RBL-1 supernatant
pIC50: −log10 of the molar value.
measure: pIC50

CC(C)(C)c1cc(S[C@H]2CCCC[C@H]2OCC(=O)O)cc(C(C)(C)C)c1 (racemic) [Example 72]; < 4.00

---

Biological target: cellular COX-II (Homo sapiens)
Construct: stimulated human fetal dermal fibroblasts (HFDF, derived from primary cell cultures); endogenous in cells
Sequence (P35354 18-604): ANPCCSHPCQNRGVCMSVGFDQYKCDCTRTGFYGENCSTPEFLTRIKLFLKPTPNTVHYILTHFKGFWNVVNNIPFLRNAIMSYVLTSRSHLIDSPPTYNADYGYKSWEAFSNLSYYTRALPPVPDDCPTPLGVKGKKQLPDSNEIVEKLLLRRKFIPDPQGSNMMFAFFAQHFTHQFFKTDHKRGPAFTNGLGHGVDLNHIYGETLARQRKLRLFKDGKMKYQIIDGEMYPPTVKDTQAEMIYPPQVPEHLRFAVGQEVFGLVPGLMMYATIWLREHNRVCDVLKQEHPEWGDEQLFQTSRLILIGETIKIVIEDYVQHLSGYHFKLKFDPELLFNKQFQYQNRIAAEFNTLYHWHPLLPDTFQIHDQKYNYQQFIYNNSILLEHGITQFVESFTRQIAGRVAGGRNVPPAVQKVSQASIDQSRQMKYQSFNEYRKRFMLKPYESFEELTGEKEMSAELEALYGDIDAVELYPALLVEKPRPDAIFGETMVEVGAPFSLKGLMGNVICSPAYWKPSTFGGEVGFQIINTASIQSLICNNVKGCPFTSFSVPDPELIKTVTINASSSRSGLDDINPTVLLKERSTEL
Assay: Cellular COX-II Assay (Cell Fibroblast Assay), IL-1 stimulated human fetal dermal fibroblasts, PGE2
Conditions: IL-1 beta stimulated human fetal dermal fibroblasts
Method: The compounds of the invention are evaluated with respect to the inhibition of cellular COX-II in vitro according to the following Cellular COX-II Assay (Cell Fibroblast Assay). Cellular COX-II Assay (Cell Fibroblast Assay) Inhibition of cellular COX-II by test compounds is determined using stimulated human fetal dermal fibroblasts (HFDF, derived from primary cell cultures). […] The following is a description of how the activities of the compounds of the present invention may be determined. […]
List of log10 IC50 values.
measure: log10 IC50 (log10 of the value in nM)

CC(C)(C)c1cc(S[C@H]2CCCC[C@H]2OCC(=O)O)cc(C(C)(C)C)c1 (racemic); 2.57
CC(C)(C)c1cc(S[C@H]2CCC[C@H]2OCC(=O)O)cc(C(C)(C)C)c1 (single isomer, unassigned) [Example 84]; 2.62
CC(C)(C)c1ccc(S[C@H]2CCC[C@H]2OCC(=O)O)c(C(C)(C)C)c1 (single isomer, unassigned) [Example 97]; 2.36
CC(C)(C)c1cc(S[C@H]2CCC[C@H]2OCC(=O)O)cc(C(C)(C)C)c1 (single isomer, unassigned) [Example 85]; 2.21
CC(C)(C)c1ccc(S[C@H]2CCC[C@H]2OCC(=O)O)c(C(C)(C)C)c1 (racemic) [Example 80]; 2.78
CC(C)(C)c1cc(S[C@@H]2CCC[C@H]2OCC(=O)O)cc(C(C)(C)C)c1 (relative stereo); 3.75
CC(C)(C)c1cc(S[C@H]2CCC[C@H]2OCC(=O)O)cc(C(C)(C)C)c1 (relative stereo) [Example 77]; 2.23
CC(C)(C)c1cc(S[C@@H]2CCCC[C@H]2OCC(=O)O)cc(C(C)(C)C)c1 (single isomer, unassigned); 2.76
CC(C)(C)c1ccc(S[C@@H]2CCC[C@H]2OCC(=O)O)c(C(C)(C)C)c1 (single isomer, unassigned) [Example 93]; 2.52
CC(C)(C)c1ccc(S[C@@H]2CCC[C@H]2OCC(=O)O)c(C(C)(C)C)c1 (single isomer, unassigned) [Example 92]; 2.39
CC(C)(C)c1ccc(S[C@@H]2CCC[C@H]2OCC(=O)O)c(C(C)(C)C)c1 (racemic) [Example 81]; 2.64
CC(C)(C)c1ccc(O[C@@H]2CCC[C@H]2OCC(=O)O)c(C(C)(C)C)c1 (relative stereo); 2.92
